# maps each entry to its composite z-score
- ASSAY_SYSTEM: Torsin-1A-interacting protein 2 (Homo sapiens)
- ASSAY_SUMMARY: LULL1 binders on small-molecule microarray, primary screen, cell lysate, human LULL1 lysate, 635/667 nm fluorescence (AID 1092);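 further: probe is lysate of COS7 cells overexpressing human LULL1; score merges per-feature 667 nm fluorescence with signal-to-noise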
- CONDITION_SET: hLULL1 lysate binding, 635 nm fluorescence, higher = more signal
Enter a number only.

Report composite z-score for `COc1ccc(CCNC(=O)[C@@]2(Sc3ccc(C)cc3)CC(=O)N(Cc3ccccc3Cl)[C@@H]2c2ccc(CO)cc2I)cc1` tested on Torsin-1A-interacting protein 2 (Homo sapiens).
1.8

Report composite z-score for `CCOC(=O)C[C@H]1[C@H](OC(=O)c2ccc(-c3ccccc3)cc2)[C@@H](NC(=O)c2ccc(-c3ccccc3)cc2)c2cc(OCCCO)ccc2N1C(=O)Cc1ccc(OC)cc1` tested on Torsin-1A-interacting protein 2 (Homo sapiens).
0.856

Report composite z-score for O=C1OCC=C[C@H]2OC34C=CCN(c5ccc(Cl)cc5)C(=O)[C@H]3N(CCCCCCO)C(=O)[C@@H]4[C@@H]12 (some centres not stated) tested on Torsin-1A-interacting protein 2 (Homo sapiens).
1.92

###

- ASSAY_SUMMARY: yeast growth modulation, basal conditions, primary screen, YJM789 clinical isolate, OD600, 24 h (AID 1089);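 further: growth of clinical yeast isolate S. cerevisiae YJM 789 seeded 1000 cells per well; test concentration not given here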
- CONDITION_SET: S. cerevisiae YJM789 growth, higher = more signal, called active from +8 up or from −8 down
The source made the active and inactive calls.
REPORTED_ENDPOINT: z-score

Here is how some molecules turned out for z-score.
- MOLECULE: "COC(=O)C(CC#Cc1ccc2c(c1)[C@]1(C(=O)N2)[C@H](C(=O)NC[C@H](O)c2ccccc2)[C@H]2C(=O)O[C@H](c3ccccc3)[C@H](c3ccccc3)N2[C@@H]1c1ccc(OCCO)cc1)C(=O)OC"
  z-score: "2.7 (inactive)"
- MOLECULE: "O=C(NCc1ccccc1)[C@]1(CCS(=O)(=O)c2ccccc2)N=C(c2ccc(OCCCO)cc2)O[C@@H]1c1ccccc1"
  z-score: "0.63 (inactive)"
- MOLECULE: "COC(=O)c1ccc(C(O)C2C=CC3C(=O)N(c4ccccc4)C(=O)C3N2Nc2ccc(C#N)cc2)o1 (stereo unspecified)"
  z-score: "-0.0337 (inactive)"
- MOLECULE: "CN(C)CCCNC(=O)[C@@]1(Cc2ccccc2I)c2ccccc2C(=O)N(Cc2ccccc2C(F)(F)F)[C@H]1c1ccc(CO)cc1"
  z-score: "-0.0554 (inactive)"

Entry `COCCOC(=O)N1C(=O)[C@@]2(c3cc(C#Cc4ccc(OC)cc4)ccc31)[C@H](C(=O)N1CCN(c3ncccn3)CC1)[C@H]1C(=O)O[C@H](c3ccccc3)[C@H](c3ccccc3)N1[C@@H]2c1ccc(O)cc1` : reported z-score = ?
-1.94 (inactive)

Entry `COc1ccccc1CN1C(=O)c2ccccc2[C@@H](C(=O)NCCN2CCOCC2)[C@@H]1c1ccc(CO)cc1` : reported z-score = ?
-0.884 (inactive)

###

# maps each entry to its z-score
- ASSAY_SUMMARY: basal HepG2 mitochondrial membrane potential changes, profiling panel, cell-based, JC-1 fluorescence, 24 h, 100 nL compound (AID 1167); further: test concentration not given here
- CONDITION_SET: higher = more signal

Entry `CN(C)CCCNC(=O)[C@@]1(Cc2ccccc2I)c2ccccc2C(=O)N(Cc2ccccc2C(F)(F)F)[C@H]1c1ccc(CO)cc1` : reported z-score = ?
-1.04

Entry `O=C1O[C@@H](c2ccccc2)[C@@H](c2ccccc2)N2[C@@H](c3ccc(O)cc3)[C@]3(C(=O)Nc4ccc(C#CC5(O)CCCCCC5)cc43)[C@@H](C(=O)N3CCCCCCC3)[C@H]12` : reported z-score = ?
-1.36

Entry O=C1OCCC=C[C@H]2OC34C=CCN(c5ccc6ccccc6c5)C(=O)[C@H]3N(CCCCCO)C(=O)[C@@H]4C12 (some centres not stated) : reported z-score = ?
1.53

Entry CC(C)OC(=O)CC(=O)CC(O)c1ccc(C#N)cc1 (configuration not stated) : reported z-score = ?
0.615

Entry `CCOC(=O)C[C@H]1[C@H](OC(=O)c2ccc(-c3ccccc3)cc2)[C@@H](NC(=O)c2ccc3ccccc3c2)c2cc(OCCCO)ccc2N1C(=O)Cc1ccc(OC)cc1` : reported z-score = ?
2.96

Entry CCCCCCCCCCC(O)C1C=CC2C(=O)N(Cc3ccccc3)C(=O)C2N1n1cnnc1 (configuration not stated) : reported z-score = ?
0.015

Entry COc1cc2c(cc1O)C(C)N(Cc1cccc(OC(F)(F)F)c1)CC2 (configuration not stated) : reported z-score = ?
0.0471

###

- ASSAY_SUMMARY: HepG2 liver cancer cell viability effects, profiling panel, resazurin fluorescence, 24 h, PK04 Diversity Set (AID 1172); further: test concentration not given here
- CONDITION_SET: higher = more signal
Label NO if z-score falls below -0.1; label YES in every other case.

- COMPOUND: "C=CCC(OC(C)=O)[C@@H]1[C@@H](N(Cc2ccc(-c3ccccc3)cc2)C(=O)Cc2ccc(F)cc2)c2cc(OCCCO)ccc2N1C(=O)c1ccc2ccccc2n1 (some centres undefined)"
  GROUP_LABEL: "YES"

Hi, just wondering whether `[N-]=[N+]=Nc1ccccc1[C@H]1OC(c2ccc(OCCCO)cc2)=N[C@@]1(CCS(=O)(=O)c1ccccc1)C(=O)O` shows z-score of -0.1 or higher.
YES

Hi, just wondering whether `COCCOC(=O)N1C(=O)[C@@]2(c3cc(C#CCNC(N)=O)ccc31)[C@H](c1ccc(O)cc1)N1[C@H](c3ccccc3)[C@H](c3ccccc3)OC(=O)[C@H]1[C@@H]2C(=O)NC[C@H](O)c1ccccc1` shows z-score of -0.1 or higher.
NO

###

- ASSAY_SUMMARY: modulators of S6 phosphorylation in cells, primary screen, cell-based, A549, cytoblot, luminescence, serum-stimulated (AID 1158);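 further: serum-stimulated A549 lung adenocarcinoma cells; signal is phosphorylated S6 detected by cytoblot immunostaining with HRP secondary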
- CONDITION_SET: A549 phospho-S6 cytoblot, 5 h, higher = more signal
REPORTED_ENDPOINT: z-score

Entry `C=CC[C@@H](OC(=O)Nc1ccc(OC)cc1)c1ccc(O)c2ccccc12` : reported z-score = ?
0.229

Entry CC(C)c1ccc(NN2C(C(O)c3cccc(O)c3)C=CC3C(=O)N(c4ccccc4)C(=O)C32)cc1 (configuration not stated) : reported z-score = ?
-0.83

Entry `COC(=O)C[C@H]1O[C@]2(C(=O)N(Cc3ccccc3)c3ccc(NC(C)=O)cc32)[C@@H](C)[C@@H]1[Si](C)(C)c1ccc(OC)cc1` : reported z-score = ?
0.186

Entry O=C1OCCC/C=C\[C@H]2OC34C=CCN(Cn5nnc6ccccc65)C(=O)[C@H]3N(CCCCCO)C(=O)[C@@H]4C12 (some centres not stated) : reported z-score = ?
-0.339

Entry `[N-]=[N+]=NCc1ccccc1C[C@]1(C(=O)NCCN2CCOCC2)N=C(c2ccc(OCCCO)cc2)O[C@H]1c1ccccc1N=[N+]=[N-]` : reported z-score = ?
-0.176

Entry `O=C1O[C@H](c2ccccc2)[C@H](c2ccccc2)N2[C@H]1[C@@H](C(=O)O)[C@]1(C(=O)Nc3ccc(C#CC4=CCCCC4)cc31)[C@H]2c1ccc(OCCO)cc1` : reported z-score = ?
0.333

Entry O=C1OCCC=C[C@H]2OC34C=CCN(Cc5ccccc5)C(=O)[C@H]3N(CCCO)C(=O)[C@@H]4C12 (some centres not stated) : reported z-score = ?
0.84

###

- System: Fibrinogen (Alexa647-labelled)
- ASSAY_SUMMARY: fibrinogen binders on compound microarrays, profiling panel, artefact control for SMM control-protein annotation, biochemical, small-molecule microarray, 635/667 nm fluorescence (AID 1131);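 further: z-score merges 667 nm fluorescence with per-spot signal-to-noise over triplicate slides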
- CONDITION_SET: fibrinogen-A647 binding fluorescence, higher = more signal
# maps each entry to its composite z-score
Enter a number only.

Here is how some compounds turned out for composite z-score.
- COMPOUND: "Cc1ccc(S[C@]2(C(=O)NCC(C)C)CC(=O)N(Cc3ccccc3Cl)[C@@H]2c2ccc(CO)cc2)cc1"
  composite z-score: -0.804
- COMPOUND: "O=C1C=CC(=O)[C@@H]2CC(COc3ccccc3)=C3[C@@H](CCc4ccccc4)OB(O)C[C@@H]3[C@H]12"
  composite z-score: -0.0249
- COMPOUND: "CCOC(=O)C1=C[C@@H](CC)N(S(=O)(=O)c2ccc(C)cc2)[C@H]1c1ccccc1"
  composite z-score: 0.928
- COMPOUND: "CCOC(=O)C[C@H]1[C@H](OC(=O)c2ccc(-c3ccccc3)cc2)[C@@H](NC(=O)c2ccc(-c3ccccc3)cc2)c2cc(OCCCO)ccc2N1C(=O)Cc1ccc(OC)cc1"
  composite z-score: 0.656
- COMPOUND: "CCCN1C(=O)[C@@]2(CCC(=O)OC(C)(C)C)N=C(c3ccc(OCCCO)cc3)O[C@H]2c2ccccc21"
  composite z-score: 0.274
- COMPOUND: "COc1ccc(C#Cc2ccc3c(c2)[C@]2(C(=O)N3)[C@H](C(=O)NC[C@H](O)c3ccccc3)[C@H]3C(=O)O[C@H](c4ccccc4)[C@H](c4ccccc4)N3[C@@H]2c2ccccc2OCCO)cc1"
  composite z-score: 0.844

Entry CN1C(=O)C2C=CC(C(O)c3ccccn3)N(Nc3ccccc3)C2C1=O (configuration not stated) : reported composite z-score = ?
1.03

Just for reference, PubChem BioAssay is where these values come from.
